System: β-Glucosidase derived from A. niger
Assay Info: Reactivity toward various isoflavone glycosides (HPLC)
Assay type: biochemical, Aspergillus niger
Set-up: unit not given here
Condition Context: Reaction time 3 h; 55 °C, pH 4.0
Measured Quantity: aglycon

COc1cc2c(=O)c(-c3ccc(O)cc3)coc2cc1O[C@@H]1O[C@H](COC(=O)CC(=O)O)[C@@H](O)[C@H](O)[C@H]1O [malonylglycitin, 6″-O-malonylglycitin]	4.4

P = CC(=O)OC[C@H]1O[C@@H](Oc2cc(O)c3c(=O)c(-c4ccc(O)cc4)coc3c2)[C@H](O)[C@@H](O)[C@@H]1O [acetylgenistin, 6″-O-acetylgenistin]
Q = O=C(O)CC(=O)OC[C@H]1O[C@@H](Oc2ccc3c(=O)c(-c4ccc(O)cc4)coc3c2)[C@H](O)[C@@H](O)[C@@H]1O [malonyldaidzin, 6″-O-malonyldaidzin]
QUERY: When P and Q are compared, which has the higher number for aglycon? Reply with the label of the item you choose.
RESULT: Q
(Q: 9.3, P: 3.3)

----------
Tested on: Crude diglycosidase
Assay Info: Examination of temperature in the conversion into isoflavone aglycons by diglycosidase using soybean materials
Assay type: biochemical, Penicillium multicolor IAM7153
Condition Context: 65 °C; heat treatment of enzyme: no; 3 h
Measured Quantity: Decomposition efficiency of glycitin family in soymilk (%)

I = COc1cc2c(=O)c(-c3ccc(O)cc3)coc2cc1O [glycitein]
II = COc1cc2c(=O)c(-c3ccc(O)cc3)coc2cc1O[C@@H]1O[C@H](COC(=O)CC(=O)O)[C@@H](O)[C@H](O)[C@H]1O [malonylglycitin, 6″-O-malonylglycitin]
QUERY: Which gives the smaller Decomposition efficiency of glycitin family in soymilk number: I or II ? Reply with the label of the item you choose.
RESULT: II
(II: 34.3%, I: 65.7%)

----------
# Decomposition efficiency of daidzin family in roasted soy flour per record follows
System: Crude diglycosidase
Assay Info: Examination of temperature in the conversion into isoflavone aglycons by diglycosidase using soybean materials
Assay type: biochemical, Penicillium multicolor IAM7153
Set-up: concentration or dose not given beside the values
Condition Context: 45 °C; heat treatment of enzyme: no; 6 h
Description: Into 400 μL of 20 mM acetate buffer of pH 4.0 was suspended 50 mg of each of various soybean materials (roasted soy flour (manufactured by Fuji Shokuryo K.K.), soymilk (manufactured by Gitoh Shokuhin K.K.), defatted soybean (manufactured by Fuji Seiyu K.K.), concentrated soybean protein (manufactured by Fuji Seiyu K.K.)), whereby a substrate solution was prepared. Crude diglycosidase was diluted with 20 mM acetate buffer of pH 4.0 to be the glycosidase activity of 1.88 AU/mL. […]
Write the number in % without appending the unit.

O=c1c(-c2ccc(O)cc2)coc2cc(O)ccc12 [daidzein]	66.2

QUERY: What reported Decomposition efficiency of daidzin family in roasted soy flour corresponds to O=c1c(-c2ccc(O)cc2)coc2cc(O[C@@H]3O[C@H](CO)[C@@H](O)[C@H](O)[C@H]3O)ccc12 [daidzin] on Crude diglycosidase?
RESULT: 5.4

QUERY: What reported Decomposition efficiency of daidzin family in roasted soy flour corresponds to CC(=O)OC[C@H]1O[C@@H](Oc2ccc3c(=O)c(-c4ccc(O)cc4)coc3c2)[C@H](O)[C@@H](O)[C@@H]1O [acetyldaidzin, 6″-O-acetyldaidzin] on Crude diglycosidase?
RESULT: 28.5

----------
Tested on: Crude diglycosidase
Assay Info: Examination of pH in the conversion into isoflavone aglycons by diglycosidase using soybean materials
Assay type: biochemical, Penicillium multicolor IAM7153
Parameters: concentration or dose not given beside the values
Condition Context: pH7.8; heat treatment of enzyme: no; reaction time 6 h
Measured Quantity: Decomposition efficiency of daidzin family in defatted soybean (%)

O=C(O)CC(=O)OC[C@H]1O[C@@H](Oc2ccc3c(=O)c(-c4ccc(O)cc4)coc3c2)[C@H](O)[C@@H](O)[C@@H]1O	38.7
O=c1c(-c2ccc(O)cc2)coc2cc(O)ccc12	51.9
O=c1c(-c2ccc(O)cc2)coc2cc(O[C@@H]3O[C@H](CO)[C@@H](O)[C@H](O)[C@H]3O)ccc12	9.4

----------
# Decomposition efficiency of daidzin family in concentrated soybean protein per record follows
System: Crude diglycosidase
Assay Info: Examination of pH in the conversion into isoflavone aglycons by diglycosidase using soybean materials
Format: biochemical, Penicillium multicolor IAM7153
Condition Context: pH2.7; heat treatment of enzyme: no; reaction time 1 h
Write the number in % without appending the unit.

CC(=O)OC[C@H]1O[C@@H](Oc2ccc3c(=O)c(-c4ccc(O)cc4)coc3c2)[C@H](O)[C@@H](O)[C@@H]1O [acetyldaidzin, 6″-O-acetyldaidzin]	46.4
O=c1c(-c2ccc(O)cc2)coc2cc(O)ccc12 [daidzein]	40.7

// next item, Decomposition efficiency of daidzin family in concentrated soybean protein requested
QUERY: Please look up its Decomposition efficiency of daidzin family in concentrated soybean protein: O=c1c(-c2ccc(O)cc2)coc2cc(O[C@@H]3O[C@H](CO)[C@@H](O)[C@H](O)[C@H]3O)ccc12 [daidzin]
RESULT: 12.9

----------
System: Crude diglycosidase
Assay Info: Examination of pH in the conversion into isoflavone aglycons by diglycosidase using soybean materials
Type: biochemical, Penicillium multicolor IAM7153
Condition Context: pH7.2, heat treatment of enzyme no, reaction time 6 h, 55° C.
Measured Quantity: Decomposition efficiency of glycitin family in soymilk

COc1cc2c(=O)c(-c3ccc(O)cc3)coc2cc1O[C@@H]1O[C@H](COC(=O)CC(=O)O)[C@@H](O)[C@H](O)[C@H]1O [malonylglycitin, 6″-O-malonylglycitin]	41.6
COc1cc2c(=O)c(-c3ccc(O)cc3)coc2cc1O [glycitein]	58.4

----------
Tested on: Crude diglycosidase
Assay Info: Examination of temperature in the conversion into isoflavone aglycons by diglycosidase using soybean materials
Format: biochemical, Penicillium multicolor IAM7153
Set-up: concentration or dose not given beside the values
Condition Context: 45° C., heat treatment of enzyme no, reaction time 3 h
Measured Quantity: Decomposition efficiency of glycitin family in defatted soybean (%)

COc1cc2c(=O)c(-c3ccc(O)cc3)coc2cc1O[C@@H]1O[C@H](COC(=O)CC(=O)O)[C@@H](O)[C@H](O)[C@H]1O [malonylglycitin, 6″-O-malonylglycitin]	44.8
COc1cc2c(=O)c(-c3ccc(O)cc3)coc2cc1O [glycitein]	55.2

----------
Tested on: Crude diglycosidase
Assay Info: Examination of temperature in the conversion into isoflavone aglycons by diglycosidase using soybean materials
Format: biochemical, Penicillium multicolor IAM7153
Condition Context: 80 °C; heat treatment of enzyme: no; 3 h
Measured Quantity: Decomposition efficiency of glycitin family in concentrated soybean protein (%)

Recorded results for 2 compounds are shown here.
COc1cc2c(=O)c(-c3ccc(O)cc3)coc2cc1O	23.4
COc1cc2c(=O)c(-c3ccc(O)cc3)coc2cc1O[C@@H]1O[C@H](COC(C)=O)[C@@H](O)[C@H](O)[C@H]1O	35.7

A = COc1cc2c(=O)c(-c3ccc(O)cc3)coc2cc1O[C@@H]1O[C@H](COC(=O)CC(=O)O)[C@@H](O)[C@H](O)[C@H]1O
B = COc1cc2c(=O)c(-c3ccc(O)cc3)coc2cc1O[C@@H]1O[C@H](CO)[C@@H](O)[C@H](O)[C@H]1O
QUERY: Which gives the smaller Decomposition efficiency of glycitin family in concentrated soybean protein number: A or B ? Reply with the label of the item you choose.
RESULT: A
(A: 0.4%, B: 40.5%)

----------
Test system: Crude diglycosidase
Assay Info: Examination of substrate concentration in the conversion into isoflavone aglycons by diglycosidase using soybean materials;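 also: percent of the isoflavone family total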
Format: biochemical, Penicillium multicolor IAM7153
Condition Context: concentrated soybean protein, substrate concentration 10%, heat treatment of enzyme no, reaction time 6 h
Measured Quantity: Decomposition efficiency: ratio of each glycoside/aglycon within its isoflavone family (%)

COc1cc2c(=O)c(-c3ccc(O)cc3)coc2cc1O[C@@H]1O[C@H](COC(C)=O)[C@@H](O)[C@H](O)[C@H]1O	23.9
CC(=O)OC[C@H]1O[C@@H](Oc2ccc3c(=O)c(-c4ccc(O)cc4)coc3c2)[C@H](O)[C@@H](O)[C@@H]1O	26.9

1 = COc1cc2c(=O)c(-c3ccc(O)cc3)coc2cc1O[C@@H]1O[C@H](COC(=O)CC(=O)O)[C@@H](O)[C@H](O)[C@H]1O
2 = COc1cc2c(=O)c(-c3ccc(O)cc3)coc2cc1O
QUERY: When 1 and 2 are compared, which has the higher number for Decomposition efficiency: ratio of each glycoside/aglycon within its isoflavone family? Reply with the label of the item you choose.
RESULT: 2

----------
System: Crude diglycosidase
Assay Info: Examination of substrate concentration in the conversion into isoflavone aglycons by diglycosidase using soybean materials;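 also: percent of the isoflavone family total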
Format: biochemical, Penicillium multicolor IAM7153
Condition Context: concentrated soybean protein, substrate concentration 20%, heat treatment of enzyme yes, reaction time 6 h
Measured Quantity: Decomposition efficiency: ratio of each glycoside/aglycon within its isoflavone family (%)

O=c1c(-c2ccc(O)cc2)coc2cc(O[C@@H]3O[C@H](CO)[C@@H](O)[C@H](O)[C@H]3O)cc(O)c12 [genistin]	50.8

1 = CC(=O)OC[C@H]1O[C@@H](Oc2cc(O)c3c(=O)c(-c4ccc(O)cc4)coc3c2)[C@H](O)[C@@H](O)[C@@H]1O [acetylgenistin, 6″-O-acetylgenistin]
2 = COc1cc2c(=O)c(-c3ccc(O)cc3)coc2cc1O [glycitein]
QUERY: When 1 and 2 are compared, which has the higher number for Decomposition efficiency: ratio of each glycoside/aglycon within its isoflavone family? Reply with the label of the item you choose.
RESULT: 1
(1: 43.2%, 2: 11.1%)
